methodDescription: limiting solubility in liquid-crystalline mixtures at 20° C.
Format: physicochemical
conditionParameters: 3010, 20° C.
// reported Solubility (limiting) per item
Value expressed in mass %; do not type the unit.

Example results:
INSERT INTO measurements (molecule, reportedmeasurement) VALUES
  ('CCCCCC1CCC(c2ccc(C(=O)Nc3cc(CCCC)c(OC(=O)C4CCC(CCCC)CC4)c4c3C(=O)c3c(NC(=O)c5ccc(C6CCC(CCCCC)CC6)cc5)cc(CCCC)c(OC(=O)C5CCC(CCCC)CC5)c3C4=O)cc2)CC1 (stereo not shown)', 9.0),
  ('CCCCC[C@H]1CC[C@H](c2ccc(C(=O)Nc3cc(CCCC)c(O)c4c3C(=O)c3c(NC(=O)c5ccc([C@H]6CC[C@H](CCCCC)CC6)cc5)cc(CCCC)c(O)c3C4=O)cc2)CC1', 1.0),
  ('CCCCc1ccc(C(=O)Nc2ccc(OC(=O)c3ccc(CCCC)cc3)c3c2C(=O)c2c(NC(=O)c4ccc(CCCC)cc4)cc(C)c(OC(=O)c4ccc(CCCC)cc4)c2C3=O)cc1', 1.1);

Which Solubility (limiting) reading was recorded for the molecule CCCCc1ccc(C(=O)Nc2cc(CCCC)c(OC(=O)c3ccc(CCCC)cc3)c3c2C(=O)c2c(NC(=O)c4ccc(CCCC)cc4)cc(CCCC)c(OC(=O)c4ccc(CCCC)cc4)c2C3=O)cc1 ?
4.6

Please look up its Solubility (limiting): CCCCCc1cc(NC(=O)c2ccc(CCCC)cc2)c2c(c1OC(=O)c1ccc(CCCC)cc1)C(=O)c1c(OC(=O)c3ccc(CCCC)cc3)c(CCCCC)cc(NC(=O)c3ccc(CCCC)cc3)c1C2=O
4.46

Name the reported Solubility (limiting) value associated with the molecule CCCCCCC1CCC(C(=O)Nc2ccc(OC(=O)C3CCC(CCCCCC)CC3)c3c2C(=O)c2c(NC(=O)C4CCC(CCCCCC)CC4)cc(C)c(OC(=O)C4CCC(CCCCCC)CC4)c2C3=O)CC1 (stereo not shown)
1.0

May I ask what Solubility (limiting) has been recorded for CCCCC[C@H]1CC[C@H](c2ccc(C(=O)Nc3ccc(O)c4c3C(=O)c3c(NC(=O)c5ccc([C@H]6CC[C@H](CCCCC)CC6)cc5)cc(C)c(O)c3C4=O)cc2)CC1 ?
1.0

Solubility (limiting) lookup needed for CCCCCC1CCC(c2ccc(C(=O)Nc3cc(CCCC)c(OC(=O)CCC)c4c3C(=O)c3c(NC(=O)c5ccc(C6CCC(CCCCC)CC6)cc5)cc(CCCC)c(OC(=O)CCC)c3C4=O)cc2)CC1 (stereo not shown) , thanks.
1.82

I would be grateful if you could share the reported Solubility (limiting) for CCCCCCc1ccc(C(=O)Nc2cc(CCCCC)c(O)c3c2C(=O)c2c(NC(=O)c4ccc(CCCCCC)cc4)cc(CCCCC)c(OC(=O)c4ccc(CCCCCC)cc4)c2C3=O)cc1 .
1.0

Any idea what Solubility (limiting) was measured for CCCCCc1cc(NC(=O)c2ccc(CCCC)cc2)c2c(c1O)C(=O)c1c(OC(=O)c3ccc(CCCC)cc3)c(CCCCC)cc(NC(=O)c3ccc(CCCC)cc3)c1C2=O ?
0.9

----------
methodDescription: limiting solubility in liquid-crystalline mixtures at 20° C.
Format: physicochemical
conditionParameters: ZK-807, 20° C.; Table 6, derivatives of SU 1089084
Solubility (limiting), known derivatives: recorded values

Example entries begin here.
INSERT INTO measurements (compound, quantity, reportedmeasurement) VALUES
  ('CCCCCCc1ccc(C(=O)Nc2ccc(OC(=O)c3ccc(CCCCCC)cc3)c3c2C(=O)c2c(NC(=O)c4ccc(CCCCCC)cc4)ccc(OC(=O)c4ccc(CCCCCC)cc4)c2C3=O)cc1 [No. 5, Table 6, reference compound]', 'Solubility (limiting), known derivatives', '0.5 mass %'),
  ('CCCCc1ccc(C(=O)Nc2ccc(O)c3c2C(=O)c2c(NC(=O)c4ccc(CCCC)cc4)ccc(O)c2C3=O)cc1 [No. 7, Table 6, reference compound]', 'Solubility (limiting), known derivatives', '0.1 mass %'),
  ('CCCCCCCCc1ccc(-c2ccc(C(=O)Nc3ccc(NCCCC)c4c3C(=O)c3ccccc3C4=O)cc2)cc1 [No. 1, Table 6, reference compound]', 'Solubility (limiting), known derivatives', '0.8 mass %'),
  ('CCCCCCc1ccc(C(=O)Nc2ccc(O)c3c2C(=O)c2c(NC(=O)c4ccc(CCCCCC)cc4)ccc(O)c2C3=O)cc1 [No. 9, Table 6, reference compound]', 'Solubility (limiting), known derivatives', '0.1 mass %'),
  ('CCCCc1ccc(C(=O)Nc2ccc(NC(=O)c3ccc(CCCC)cc3)c3c2C(=O)c2ccccc2C3=O)cc1 [No. 3, Table 6, reference compound]', 'Solubility (limiting), known derivatives', '2.0 mass %'),
  ('CCCCCCc1ccc(C(=O)Nc2ccc(NC(=O)c3ccc(CCCCCC)cc3)c3c2C(=O)c2ccccc2C3=O)cc1 [No. 4, Table 6, reference compound]', 'Solubility (limiting), known derivatives', '2.3 mass %'),
  ('CCCCCC1CCC(c2ccc(C(=O)Nc3ccc(O)c4c3C(=O)c3c(NC(=O)c5ccc(C6CCC(CCCCC)CC6)cc5)ccc(OC(=O)c5ccc(C6CCC(CCCCC)CC6)cc5)c3C4=O)cc2)CC1 (stereo not shown) [No. 10, Table 6, reference compound]', 'Solubility (limiting), known derivatives', '0.2 mass %'),
  ('CCCCc1ccc(C(=O)Nc2ccc(O)c3c2C(=O)c2c(NC(=O)c4ccc(CCCC)cc4)ccc(OC(=O)c4ccc(CCCC)cc4)c2C3=O)cc1 [No. 8, Table 6, reference compound]', 'Solubility (limiting), known derivatives', '1.0 mass %');

Give its Solubility (limiting), known derivatives value. Item: CCCCCc1ccc(-c2ccc(C(=O)Nc3ccc(NCCCC)c4c3C(=O)c3ccccc3C4=O)cc2)cc1 [No. 2, Table 6, reference compound]
0.9 mass %

Any idea what Solubility (limiting), known derivatives was measured for CCCCc1ccc(C(=O)Nc2ccc(OC(=O)c3ccc(CCCC)cc3)c3c2C(=O)c2c(NC(=O)c4ccc(CCCC)cc4)ccc(OC(=O)c4ccc(CCCC)cc4)c2C3=O)cc1 [No. 6, Table 6, reference compound] ?
0.5 mass %

----------
methodDescription: λmax of the long-wave absorption band of the dye
Format: physicochemical
conditionParameters: Table 1 / Examples; several values = several maxima
Here the recorded λmax is given for each entry.
# output: bare number, implied unit nm

Reference set (3 entries):
INSERT INTO assay_data (compound, reportedmeasurement) VALUES
  ('CCCCCC1CCC(c2ccc(C(=O)Nc3cc(CCCC)c(OC(=O)c4ccc(C5CCC(CCCCC)CC5)cc4)c4c3C(=O)c3c(NC(=O)c5ccc(C6CCC(CCCCC)CC6)cc5)cc(CCCC)c(OC(=O)c5ccc(C6CCC(CCCCC)CC6)cc5)c3C4=O)cc2)CC1 (stereo not shown)', 466),
  ('CCCCc1ccc(C(=O)Nc2ccc(OC(=O)c3ccc(CCCC)cc3)c3c2C(=O)c2c(NC(=O)c4ccc(CCCC)cc4)cc(C)c(OC(=O)c4ccc(CCCC)cc4)c2C3=O)cc1', 465),
  ('CCCCCCC1CCC(c2ccc(C(=O)Nc3cc(CCCC)c(O)c4c3C(=O)c3c(NC(=O)c5ccc(C6CCC(CCCCCC)CC6)nc5Cl)cc(CCCC)c(OC(=O)c5ccc(C6CCC(CCCCCC)CC6)nc5Cl)c3C4=O)c(Cl)n2)CC1 (stereo not shown)', 534);

Please examine the following record next.
Entry under review: CCCCCC1CCC(c2ccc(C(=O)Nc3cc(CCCC)c(OC(=O)CCC)c4c3C(=O)c3c(NC(=O)c5ccc(C6CCC(CCCCC)CC6)cc5)cc(CCCC)c(OC(=O)CCC)c3C4=O)cc2)CC1 (stereo not shown) . Reported λmax?
473

----------
methodDescription: λmax of the long-wave absorption band of the dye
Assay type: physicochemical
conditionParameters: Table 7; two values = two maxima
Listed below: λmax, known derivatives values for each entry.
Respond with the bare value in nm.

Consider the following illustrative entries.
INSERT INTO measurements (molecule, quantity, unitssymbol, reportedmeasurement) VALUES
  ('CCCCc1ccc(C(=O)Nc2ccc(O)c3c2C(=O)c2c(NC(=O)c4ccc(CCCC)cc4)ccc(O)c2C3=O)cc1 [No. 7, Table 6, reference compound]', 'λmax, known derivatives', 'nm', 560),
  ('CCCCCCc1ccc(C(=O)Nc2ccc(OC(=O)c3ccc(CCCCCC)cc3)c3c2C(=O)c2c(NC(=O)c4ccc(CCCCCC)cc4)ccc(OC(=O)c4ccc(CCCCCC)cc4)c2C3=O)cc1 [No. 5, Table 6, reference compound]', 'λmax, known derivatives', 'nm', 468),
  ('CCCCc1ccc(C(=O)Nc2ccc(O)c3c2C(=O)c2c(NC(=O)c4ccc(CCCC)cc4)ccc(OC(=O)c4ccc(CCCC)cc4)c2C3=O)cc1 [No. 8, Table 6, reference compound]', 'λmax, known derivatives', 'nm', 535);

--- query ---
// lookup λmax, known derivatives for CCCCCCc1ccc(C(=O)Nc2ccc(O)c3c2C(=O)c2c(NC(=O)c4ccc(CCCCCC)cc4)ccc(O)c2C3=O)cc1 [No. 9, Table 6, reference compound]
562
